System: PC-3
assay summary: NCI tumour cell line growth inhibition, 48 h
The source made the active and inactive calls. No stated cut-off is given here; in the data, active = GI50 up to about 1.1 µM and inactive = higher.
Please provide measured GI50 for the entries that follow.

Fill in the blank: the reported GI50 of C=C(C)C12OC1[C@@]1(C)C(=CC2=O)CCC(O)[C@@H]1C (stereo partly specified) is ____. 2.65 µM (inactive)

For the molecule C/C(=N\N)C(CN1CCOCC1)C(c1ccccc1)c1c(O)c2ccccc2oc1=O (stereo unspecified) , what GI50 is on record? > 100 µM (inactive)

Give GI50 for each listed item.
1. COc1cccc(C23CCCC(C2)NCC3Br)c1OC (stereo unspecified)
2. CCOc1ccc(/N=N/C2C(=O)N(C(=O)CC(=O)Nc3ccccc3OC)N=C2C)cc1 (stereo unspecified)
3. N=C(N)SCc1ccc(Cl)c2ccccc12.O=[N+]([O-])c1ccc(O)c([N+](=O)[O-])c1
4. Cc1[nH]c(=O)nc(S)c1C(=O)Nc1cccc2cc3ccccc3cc12
5. C[N+](C)(C)/N=C\c1ccc(O)c(O)c1
6. COC(=O)c1cc2c3c(c1)Oc1cc(C(=O)OC)cc4c1C3c1c(cc(C(=O)OC)cc1O4)O2

1. 30.5 µM (inactive)
2. > 100 µM (inactive)
3. 12.6 µM (inactive)
4. > 100 µM (inactive)
5. > 100 µM (inactive)
6. 10.4 µM (inactive)

Below are 3 molecules. Give each one its GI50.
1. NC(=O)c1cc2ccc(O)cc2o/c1=N/c1ccccc1
2. CCC(CCCN)Nc1cc(OC)cc2cccnc12 (stereo unspecified)
3. CCSC1=N/C(=C\c2ccco2)C(NN)=N1

["37.7 µM (inactive)", "> 100 µM (inactive)", "> 50 µM (inactive)"]

###

So I've got a bunch of molecules here, and I need their GI50 values.
System: Malme-3M
assay summary: NCI tumour cell line growth inhibition, 48 h
Active and inactive are the calls of the source. Cut-off read from the data, not from the text of the source: active = GI50 up to about 1.1 µM and inactive = higher.

Look over these answered cases.
Can you share its GI50? I mean this molecule: "Cc1ccc2oc(=O)cc(CC(=O)O)c2c1" > 100 µM (inactive)

Query (molecule): COc1cccc2c1C(=O)c1c(O)c3c(c(O)c1C2=O)CC(O)(C(=O)CO)CC3OC1CC(N2CCOCC2C#N)C(O)C(C)O1 (stereo not drawn) ; field requested: GI50 < 0.0001 µM (active)

Recorded GI50 for O=C(N/S(=N/S(=O)(=O)c1ccc(Br)cc1)C(Cl)(Cl)Cl)c1ccccc1 (stereo not drawn) , please? > 100 µM (inactive)

Looking for the measured GI50 of "CN(/N=C/c1ccccn1)C1=NCCCCN1" , can you help? > 100 µM (inactive)

I would be grateful if you could share the reported GI50 for "Cn1c(-c2ccccc2)c2cc3nc4ccccc4nc3cc2c1-c1ccccc1" . 30.1 µM (inactive)

State recorded GI50 for all listed molecules.
1. CCC(C)(C)c1ccc(Oc2cccc(C(=O)O)c2)cc1
2. CC(=O)N1C(C(=O)NC2CCCCC2)CSC1c1ccccc1 (stereo not drawn)
3. CC1=C(C#N)C(C#N)(C#N)C(NN(C)C)C1 (stereo not drawn)
4. COP(=O)(OC)C(NC=O)P(=O)(OC)OC
5. Cc1ccc(NC(=O)C(=O)CC(=O)C2CCOC2=O)c(C)c1 (stereo not drawn)
6. COC(=O)C1=C(O)C(C(=O)OC)[C@]2(O)[C@H](C(=O)OC)[C@H]1C[C@@H](c1ccc(F)cc1)[C@H]2C(=O)OC (stereo partly drawn)

1: 44.6 µM (inactive); 2: > 100 µM (inactive); 3: 17.7 µM (inactive); 4: > 100 µM (inactive); 5: > 100 µM (inactive); 6: 12.9 µM (inactive)

Would you mind listing GI50 for each of the following molecules?
1. O=C(/N=N/c1ccccc1Cl)NNc1ccccc1Cl
2. O=C1Nc2cc(F)ccc2C1=O
3. CC(C)SC(=S)Sc1c(Cl)c(Cl)nc(Cl)c1Cl

["67 µM (inactive)", "> 100 µM (inactive)", "15.7 µM (inactive)"]

List the reported GI50 of each molecule below.
1. COCC12CCC(OC)C34C5CC6(O)C(OC)C=C(C5C6OC(=O)c5ccccc5)C(C(OC)C13)C4N(C)C2 (stereo not drawn)
2. COC(=O)C1(Cc2ccc(C)cc2)Cc2c(C)cccc2C1=O (stereo not drawn)
3. CN(CCNC(=O)c1c[nH]c2c1ccc1ccccc12)CCNC(=O)c1c[nH]c2c1ccc1ccccc12
4. S=C(Nc1ccccc1)Nc1[nH]c(=S)sc1-c1nc2ccccc2[nH]1
5. COc1ccc(C(=O)/C=C/c2ccc(OCC#N)cc2)cc1OC
6. CC(=O)Nc1ccc(-c2nc3cc(Cl)ccc3o2)cc1

1. > 100 µM (inactive)
2. 13 µM (inactive)
3. 8.55 µM (inactive)
4. 43 µM (inactive)
5. 20.9 µM (inactive)
6. > 50 µM (inactive)

I'm hoping you can list GI50 for every molecule here, please.
1. CON(C(=O)OC(C)(C)C)c1ccccc1
2. CCOC(=O)[C@@H](Cc1ccc(CCl)cc1)NC(C)=O
3. CC(C)(C)NNc1c([N+](=O)[O-])cnn(-c2ccccc2)c1=O

> 100 µM (inactive)
19.2 µM (inactive)
4.05 µM (inactive)
